procedure.details: soluble fraction after stress (log2 fold change); higher = more stays soluble; pooled small domains, quantitative proteomics;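 also: 20 min heating vs room temperature control held 20 min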
measurement.setup: stress: 75 degC
outcome.measure: soluble fraction (log2)
// no unit string in output, number only

Below, 3 sequences whose answers are already recorded.
HMLVDWNYLEGKRGVTTTPLTPSGKARFGDDVVNVLSDGVLVSTGTPVRVLQVLGNRVLVEPLDG ... -0.21
HMIGDNNELFQKAQLTPREKEVALLLLQGETNSDIAKILYVGLSTVKKHISSIFEKTKVKSRTEFISKVR ... -1.6
HMGLVVIGTEAGYPAEKAGILAGDRIRKLNGAAVPDYDTFLTALAARKGEPSAIELERDGKTLEVTVSPL ... 0.105

[ask] Using the record for `HMSKMVEMSQEKSREKVARVKIEIQKMLDRKERVTVSGLERATGFSNSFFYRNEEVNQAVKEAQLKQ` , state its measured soluble fraction (log2).
[reply] -0.138

* * *

procedure.details: soluble fraction after stress (log2 fold change); higher = more stays soluble; pooled small domains, quantitative proteomics
measurement.setup: stress: 75 degC
Parameter: soluble fraction (log2). Scope: all listed entries.

Below, 3 sequences whose answers are already recorded.
HMEQPLSLKLANNAFSRFWGNANPAEKDTQPNNSDIAKWVIEQSGGKITQTMADKIAQIIRPEWAA ... 0.372
HMGPEISEDAKVVFDRLKNHDEILLNNFKSEFDLSNKKWDKIIKELRGNDLISIIKSEDGNLFIKP ... -0.125
HMDEWKRKELWDAIARLPKIQRMVVTMRTTENLPYKEIAKIMNISENSAKVNYHHAVEALKIFF ... -2.84

[ask] Using the record for `HMTGMEKFLTIPSIRESTAAFEREYLIHYLDENAWQVSKTAAAIGIERTTLYKKMKQLGIVPIEE` , state its measured soluble fraction (log2).
[reply] -3.22

[ask] Using the record for `HMSREQARRFYFDTWAKHRASQPLTDLEKIALTVMLLHPEYHSLLDKPDHYVDKDYSPEAGQTNPFLHM` , state its measured soluble fraction (log2).
[reply] -1.72

[ask] Using the record for `HMANDNFPLKLGSKGPRVLQLKTMLIQSLSNDALPKGRSSDAFDSELEALLSRNNLPTVIDETNFRVLTK` , state its measured soluble fraction (log2).
[reply] -0.0514

[ask] Using the record for `HMSRAHTELEEKLLTMLEENDMTLPMRVISNIASRIEGIIIPEEKILEVLKKSYDRYREHQMD` , state its measured soluble fraction (log2).
[reply] -0.267

[ask] Using the record for `HMNSTVKVPNVVGMSVPQAKALLEQNHLLVQGIREVSTDKAPAGIVINQLPYSDAEVKEERHIYLTVSKGK` , state its measured soluble fraction (log2).
[reply] 0.968

* * *

procedure.details: soluble fraction after stress (log2 fold change); higher = more stays soluble; pooled small domains, quantitative proteomics
measurement.setup: stress: 75 degC
Parameter: soluble fraction (log2). Scope: all listed entries.
// no unit string in output, number only

Below, 2 sequences whose answers are already recorded.
HMFELTVGTPIRVIREPYFGKLGTVTELPAQLMVVESGTEVRVLKAKIEGEGEVLVPRANVEIIATG ... -1.38
HMIPNPMTDRELEVLGLLASGKTYKQVARALDLSQSTVRNHLHNVYHKLNVVDRAQAVIVSRENGW ... -0.379

[ask] Using the record for `HMEDTSTLSIKHKIKELINQESPQAILSDDKLVELLAAQGIKIARRTIAKYRETMNIPTSAERKRQKRPP` , state its measured soluble fraction (log2).
[reply] 0.0599

[ask] Using the record for `HMPDLKIGKDHRLAEYIETKIAEDGYSPGAVLGEIKAKGLEFETEISKPTLYSYIDKGIFLTITNKELPV` , state its measured soluble fraction (log2).
[reply] 0.25

[ask] Using the record for `HMVQISNTDDLYPIVQRIVDANPQSVEDYKNGKAKALGFLVGQMMKETKGKANPSMVNDLIIKAIEE` , state its measured soluble fraction (log2).
[reply] -0.022

[ask] Using the record for `HMGEQLALLERARTLLEDETLETEVQKELEMLLEDIEAARAEANATQLEDLFEELADLLFDLE` , state its measured soluble fraction (log2).
[reply] 0.316

[ask] Using the record for `HMENKIIKNAAHATLKVKKDAGIEITTELIREAVILFHRIYSPNDNPNINWERIINELESHYT` , state its measured soluble fraction (log2).
[reply] -3.66

[ask] Using the record for `HMSPTDKATVNVYALNVRTGPGTNYKVLGSVIKGTELQVLGSSGKWLKVKYGNREAYVAGWLVK` , state its measured soluble fraction (log2).
[reply] -2.85

* * *

procedure.details: soluble fraction after stress (log2 fold change); higher = more stays soluble; pooled small domains, quantitative proteomics
measurement.setup: stress: 75 degC
Parameter: soluble fraction (log2). Scope: all listed entries.
// no unit string in output, number only

HMSTANISIEQAKEIALNHANLTSNQVIFSRTELDYDNGIQKYEVEFYYNNREYSYEINANTGDILGYEQ ... -0.722
HMDLPREKRIEIGLTYIYGIGLKTSQKILAATGIDPNTRVKDLDETTVSKLREYIDHNYRVEGELRS ... -1.32
HMNVNVSFTQLRHKAEHAIQAKNWSEARNLLTLATLMRPTHRNVARRLKAVEQRNRLFRRLLLILTHRKV ... -0.429
HMVNYKEILRLSAEGNSQRQIAAGSGNSRNTVIEVLEAARARGITWPLDEPVTNEQLEAILFPNRY ... -0.072
HMENFIPDDPKRIEIGMSVLHQRFGKGKVMQLEGNLPDMKATVNFEGEGQKQLLLKYARLKIV ... -0.99
HMREVTVGSAVRLKKGAKTYSGGSLASFVYERNHQVTQLSGDRAVISFKGTVVAAVHKDDLIL ... -1.06
HMIQTMVVTDLKNGTIFKENGHPFIVLKYEHIKVSRGSAQVRVKMKNLITGQVLEKSWQSTAHVDDT ... -3.24
HMRKDYTVLYSAVNAEEATEIVSKLQESGVAYQYKDNGDVLVDKKQVDKVRAQLAQEGYPKS ... 0.0467

[ask] Using the record for `HMDTIRINSGSTVKEVAEYLGIPVPEVIKKLMSMGELATLTKTLSDDHIEVLAEEFEKKIKIVHVGEEAD` , state its measured soluble fraction (log2).
[reply] -0.458

[ask] Using the record for `HMKEEDLPREYTDILGNSVHERLNIMIHDIIEHSQDKPEVAMSPEREEAMHGLRRWMFDHVYH` , state its measured soluble fraction (log2).
[reply] -0.168

[ask] Using the record for `HMNPETLTNSSVIKMSKANLSDELITDMILNSPVKFDLSAGAIKTLESEGVTPAVLESMKNAASK` , state its measured soluble fraction (log2).
[reply] 0.131

* * *

procedure.details: soluble fraction after stress (log2 fold change); higher = more stays soluble; pooled small domains, quantitative proteomics
measurement.setup: stress: 75 degC
Parameter: soluble fraction (log2). Scope: all listed entries.

HMYSDDNKSILNLIDNLFNKENIKIDINAKKLLSNYLGVDRLVTKGEIEKAILFAGTKKHLSIEDISAFLS ... -0.104
HMAADRRKAERPLIDGQAVMDRFEVGPGPMVGKALKFLLALKRAEPDLDLAGTEERLDAWWNEQL ... 0.0606
HMEDPFLWVEKLGSSDWIEREESAEKLLEAGEASVEALRTALTHPDLEVRERVRELLSVISPL ... 0.409

Let's switch to this sequence now.
[ask] Using the record for `HMDATFKVRVSVPDLNIRSGPGTNYAATGRFTGVGVFTITAVQSGQGSSSGWGKLKSGAGWIALDYAKR` , state its measured soluble fraction (log2).
[reply] -3.78

* * *

procedure.details: soluble fraction after stress (log2 fold change); higher = more stays soluble; pooled small domains, quantitative proteomics
measurement.setup: stress: 75 degC
outcome.measure: soluble fraction (log2)
// no unit string in output, number only

Below, 4 sequences whose answers are already recorded.
HMPTAGYMTVTPDRVKEGQQFLATLRPPYVLKADGLAAGKGVLILPELEEAQRELEEMLGGFLGELSVNR ... 0.136
HMPTQGELAILRVLWEQGPSTVRAVWEKLNSQSGTGYTTALKLMQIMAQKGLVSRDESQKTHVYRA ... -1.54
HMGNGALLTLTVKERQVIQLVAEGKSNKQIARDLNVTPETIKSHMKNIFAKLKVDNRAQAAVMVQQ ... -2.16
HMHMSLTEKYKELTDLAVSAGVQNLNVREQDGVLYVDGDASGAVKQQLWDTYGKLDPDYTSGDLVLNI ... 0.279

[ask] Using the record for `HMHPVEPDDPDQHILFQHLRGQDQVHIDALIRLSGWTADKVSSTLLFMELQGLVKQLPGMYYALE` , state its measured soluble fraction (log2).
[reply] -0.806

[ask] Using the record for `HMKKTPLSELTNRAVELFIETVFMERNYSVSSQRQFISALKIFTVFYPQTKIHNLSLERLQSSFDKLLN` , state its measured soluble fraction (log2).
[reply] -1.25

[ask] Using the record for `HMLTRYNVNYYYNGEILQRRKVAEGSAAERITYLSGSLEVTDWYTEADLLRKYDFTEPVTGDLNLYAFARI` , state its measured soluble fraction (log2).
[reply] -1.42

[ask] Using the record for `HMGGKWKAIIIYHLKNGPKRFGELRRALISSTETVLSNQLKQLEQDGLVSRQVFGTKPPLKTVYSLTDFG` , state its measured soluble fraction (log2).
[reply] -3.3
